# ASSAYED SYSTEM: Sodium-dependent noradrenaline transporter (Homo sapiens, UniProt P23975)
# Sequence (P23975 whole entry): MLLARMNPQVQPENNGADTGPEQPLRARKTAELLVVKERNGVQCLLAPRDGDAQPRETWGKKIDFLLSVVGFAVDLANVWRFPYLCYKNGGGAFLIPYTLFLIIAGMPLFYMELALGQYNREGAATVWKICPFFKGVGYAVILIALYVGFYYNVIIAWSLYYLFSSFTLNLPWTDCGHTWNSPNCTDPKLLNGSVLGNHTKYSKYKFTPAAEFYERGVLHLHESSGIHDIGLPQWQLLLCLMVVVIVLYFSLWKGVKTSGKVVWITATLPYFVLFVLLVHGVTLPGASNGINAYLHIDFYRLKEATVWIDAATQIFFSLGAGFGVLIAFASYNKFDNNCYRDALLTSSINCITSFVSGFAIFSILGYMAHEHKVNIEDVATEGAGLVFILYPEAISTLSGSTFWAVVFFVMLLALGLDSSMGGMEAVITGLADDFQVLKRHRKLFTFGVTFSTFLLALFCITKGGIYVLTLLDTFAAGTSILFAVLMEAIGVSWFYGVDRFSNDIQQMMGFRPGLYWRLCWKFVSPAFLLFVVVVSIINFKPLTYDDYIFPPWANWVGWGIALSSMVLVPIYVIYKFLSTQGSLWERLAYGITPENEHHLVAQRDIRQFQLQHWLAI
# ASSAY COMMENT: Displacement of [3H]nisoxetine from human NET transfected in HEK293 cells
MEASUREMENT LABEL: Ki (nM)
Give your result in nM as a bare value.

Reported Ki ( COC(=O)/C=C1/CN2C3CCC2C1C(c1ccc(Br)cc1)C3 (stereo not drawn) ) = 12.5

Ki measured on COC(=O)/C=C1/CN2C3CCC2C1C(c1ccc(Cl)cc1)C3 (stereo not drawn) = 13

// Ki lookup, compound = C=C1CN2C3CCC2C1C(c1ccc(I)cc1)C3 (stereo not drawn) , result: 5.87
